Tested on: BTK
Experiment: KINOMEscan kinase binding assay
Conditions: at 1 μM
Here the recorded % Ctrl is given for each entry.
Enter your answer as a number in %; do not include the unit.

chemical smiles | measured number
Cc1cc2c([nH]1)/C=C1\C(=O)Nc3ccc(cc31)-c1c(nn(C)c1C)OCCCN(C)C2=O | 94
C[C@@H]1COCc2nn(C)cc2-c2cc(Cl)c3c(c2)/C(=C/c2[nH]ccc2C(=O)N1)C(=O)N3 | 78
Cc1cc2c([nH]1)/C=C1\C(=O)Nc3c(Cl)cc(cc31)-c1cn(C)nc1COC[C@@H](C)N(C)C2=O | 68
Cc1cc2c([nH]1)/C=C1\C(=O)Nc3ccc(cc31)-c1c(nn(C)c1C)COCCN(C)C2=O | 100

// below: % Ctrl requested for another compound
Data point: Cc1cc2c([nH]1)/C=C1\C(=O)Nc3c(Cl)cc(cc31)-c1cn(C)nc1COC[C@@H](C)NC2=O ; % Ctrl = 86

meta.source: patent US20250074920A1
